Consider the following binders; for each one, report its kon.
# target.system: T1, Human CD33 ECD-HSA (human)
# T1 construct: CD33 ECD fused at the C-terminus to monomeric HSA (C58S) and a six-histidine tag; also called C33W2; huCD33 ECD-HSA
# assay.notes: ProteOn SPR, mAb captured on anti-human Fc, antigen as analyte
Answers are plain numbers, in M⁻¹ s⁻¹.

In the examples that follow, each entry is paired with its recorded kon.
C33B912 (antibody, V domains shown, OMNIMouse-derived anti-CD33 mAb; also called C33H252/C33L118; C33F550) VH: EVQLVESGGGLVQPGRSLRLSCAASGFTFDDYAMHWVRQAPGKGLEWVSGIGWSGGSIVYADSVKGRFTISRDNAKNSLYLQMNSLRAEDTALYYCAKDSPYGDFFDYWGQGTLVTVSS VL: DIVMTQSPDSLAVSLGERATINCKSSQTVFYSSNNKNYLAWYQQKPGQPPKLLISWASTRKSGVPDRFSGSGSGTDFTLTVSSLQAEDVAVYYCQHYYSTPYTFGQGTKLEIK; 1.42e+06
C33B914 (antibody, V domains shown, OMNIMouse-derived anti-CD33 mAb; same V regions as C33B906; also called C33H254/C33L120; C33F552) VH: QVQLVESGGGVVQPGRSLRLSCAASGFTFSYYGMHWVRQAPDKGLEWVAVIWFDGNNKYYADSVKGRFTISRDNSKNTLYLQMNSLRAEDTAVYYCARDRELLFDYWGQGTLVTVSS VL: SYELTQPPSVSVSPGQTASITCSGDELGDMYACWYQQKPGQSPLVVIYQDSKRPSGIPERFSGSNSGNTATLTISGTQAMDEAAYYCQTWDTRIAVFGGGTNLTVL; 444000
C33B916 (antibody, V domains shown, OMNIMouse-derived anti-CD33 mAb; same V regions as C33B908; also called C33H256/C33L122; C33F554) VH: QVQLVESGGGVVQPGRSLRLSCATSGFTFSNYGMHWVRQAPGKGLEWVAVIWYVGSHKYYADSVKGRFTISRDNSKNTLYLQMNSLRAEDTAVYYCARDGSLCFDYWGQGTLVTVSS VL: SYELTQPPSVSVSPGQTANISCSGVTLGYNYAYWYQQKPGQSPILVISQDTQRPSGIPERFSGSNSGNTATLTISGTQAMDEAAYYCQAWDITTVLFGGGTKLTVL; 627000

From here, focus on the item given below.
## Task // returns reported kon for input C33B915 (antibody, V domains shown, OMNIMouse-derived anti-CD33 mAb; same V regions as C33B907; also called C33H255/C33L121; C33F553) VH: EVQLVESGGGLVQPGRSLRLSCAASGFTFDDYAMHWVRQVPGEGLEWVSGISWNGGDMVYADSVKGRFTISRDNAKNSLYLQMNSLRPEDTALYYCVKDMPYFDFLTGSDYYYYGMDVWGQGTTVTVSS VL: SYELTQPPSVSVSPGQTASITCSGDNLGNEHVCWYHQKPGQSPVLVIYQNNKRPSGIPERFSGSNSGNTATLSISGTQATDEADYYCQAWDSTTAVFGGGTKLTVL
## Result 218000

Origin of the recorded values: patent US20230322924A1
